The reported numbers originate from PubChem BioAssay AID248.

Collected T/C values appear next to each entry.
# Tested on: L1210 leukemia ip in BDF1 mice, survival T/C
# testDescription: NCI In Vivo Anticancer Drug Screen. Data for tumor model L1210 Leukemia (intraperitoneal) in B6D2F1 (BDF1) mice
# testSettings: endpoint: mean survival time; dose: 200.0 mg/kg/injection; schedule: Q04DX003 (ip); vehicle: other; higher = longer survival
Toxic doses and inconclusive results are not listed.

Use the examples below as a reference point.
compound	measure	obsValue
CCc1nc2c(OC)ccc(OC)c2[nH]c1=O	T/C	103 % of control
CC12CCC3(CC1CCC(OC(=O)c1ccccc1)C2)OCCO3 (configuration not stated)	T/C	106 % of control
CC(C)OC(=S)SSC(=S)OC(C)C	T/C	98 % of control
COC(=O)c1ccc(=O)n(C/C=C(\C)CCC(=O)O)c1	T/C	93 % of control
CC(=O)CCCCCCCCCCC1CCC2OC12 (configuration not stated)	T/C	94 % of control
CNS(=O)(=O)c1ccc(NC(=O)CCl)cc1	T/C	98 % of control

Please report the recorded T/C for `O=[N+]([O-])c1ccc(S(=O)(=O)Nc2ccc(-c3ccccc3)cc2)cc1` . 96 % of control

---

Collected T/C values appear next to each entry.
# Tested on: L1210 leukemia ip in BDF1 mice, survival T/C
# testDescription: NCI In Vivo Anticancer Drug Screen. Data for tumor model L1210 Leukemia (intraperitoneal) in B6D2F1 (BDF1) mice
# testSettings: endpoint: mean survival time; dose: 200.0 mg/kg/injection; schedule: Q04DX003 (ip); vehicle: saline with Tween-80; higher = longer survival
Inconclusive results and toxic doses are left out.

compound	obsValue
CC1CC(C)(C)N=C(CCC2CCCC2=O)O1 (configuration not stated)	96 % of control
c1nc(SCSc2ncnc3nc[nH]c23)c2[nH]cnc2n1	90 % of control
CCOC(=O)c1ccc2c(c1)nc1c3cccc4cccc(c(=O)n21)c43	92 % of control
CCCOC(=O)Nc1cccc(OC(=O)NC)c1	94 % of control

Please report the recorded T/C for CC(C)CCOC(=O)C(Br)c1ccccc1 (configuration not stated) . 99 % of control

Now consider `CC(=O)Nc1ccc2c(c1)C(=O)c1cc(F)ccc1-2` and answer again. 96 % of control

---

# System: L1210 leukemia ip in BDF1 mice, survival T/C
# testDescription: NCI In Vivo Anticancer Drug Screen. Data for tumor model L1210 Leukemia (intraperitoneal) in B6D2F1 (BDF1) mice
# testSettings: endpoint: mean survival time; dose: 100.0 mg/kg/injection; schedule: Q01DX009 (ip); vehicle: saline with Tween-80; higher = longer survival
Toxic doses and inconclusive results are not listed.
Collected T/C values appear next to each entry.

Use the examples below as a reference point.
molecule	T/C
CN(C)N=Nc1ccc(Cl)cc1C(N)=O	104 % of control
COc1ccc(Cl)cc1NC(=O)Oc1ccc(SC)c(C)c1	95 % of control
CC(C)CCOC(=O)C(Br)c1ccccc1 (centres undefined)	95 % of control
O=C(NC1CCCCC1)c1ccc(Cl)cc1Cl	100 % of control
COc1cc(OC)cc(C(=O)Cl)c1	100 % of control
CCCN(CCC)/N=N/c1nc[nH]c1C(N)=O	97 % of control
COc1ccccc1C1OCC(C)(C)N1C (centres undefined)	101 % of control
CC1(C)C(=O)C(=O)C2CCCCC21 (centres undefined)	97 % of control

// next item, T/C requested
Please report the recorded T/C for COCC(O)CCl (centres undefined) . 113 % of control
